Where do these numbers come from? They come from patent US4317824A.

assayDetails: in vivo
conditions: mouse, po
measurementName: LD50

[O-][n+]1cc(C(=NO)NN2CCOCC2)[n+]([O-])c2ccccc21 [Example 25]; 1240 mg/kg

Consider the record given below.
Data point: CN1CCN(C(=NO)c2c[n+]([O-])c3ccccc3[n+]2[O-])CC1 [Example 26a] ; LD50 = 1240 mg/kg

====

assayDetails: Acute oral LD50 in chicks
conditions: chicken, in vivo
LD50 reference

Worked examples follow.
[O-][n+]1cc(C(=NO)NN2CCOCC2)[n+]([O-])c2ccccc21; 428 mg/kg
CCOC(=O)NNC(=NO)c1c[n+]([O-])c2ccccc2[n+]1[O-]; 1500 mg/kg

Consider the record given below.
Data point: CN1CCN(C(=NO)c2c[n+]([O-])c3ccccc3[n+]2[O-])CC1 [Example 26a] ; LD50 = 400 mg/kg

====

MIC reference
Test system: E. Coli
Report the figure in µg/mL without appending any unit label.

Worked examples follow.
CNC(=NO)c1c[n+]([O-])c2ccccc2[n+]1[O-]; 25
CN1CCN(C(=NO)c2c[n+]([O-])c3ccccc3[n+]2[O-])CC1 [drawing 6]; 25

Consider the record given below.
`CN(C)C(=NO)c1c[n+]([O-])c2ccccc2[n+]1[O-]` on E. Coli gives MIC = 10

====

MIC tested on E. Coli: recorded values
Report the figure in µg/mL without appending any unit label.

CN1CCN(NC(=NO)c2c[n+]([O-])c3ccccc3[n+]2[O-])CC1; 25

Consider the record given below.
CCN(CC)C(=NO)c1c[n+]([O-])c2ccccc2[n+]1[O-] [Example 22] on E. Coli gives MIC = 50
